Items are presented alongside their recorded Ki.
target: UniProtKB P32245; assay: Displacement of [125]NDPMSH from human MC4 receptor expressed in HEK293 cells; type: cell-based
Sequence (P32245 whole entry): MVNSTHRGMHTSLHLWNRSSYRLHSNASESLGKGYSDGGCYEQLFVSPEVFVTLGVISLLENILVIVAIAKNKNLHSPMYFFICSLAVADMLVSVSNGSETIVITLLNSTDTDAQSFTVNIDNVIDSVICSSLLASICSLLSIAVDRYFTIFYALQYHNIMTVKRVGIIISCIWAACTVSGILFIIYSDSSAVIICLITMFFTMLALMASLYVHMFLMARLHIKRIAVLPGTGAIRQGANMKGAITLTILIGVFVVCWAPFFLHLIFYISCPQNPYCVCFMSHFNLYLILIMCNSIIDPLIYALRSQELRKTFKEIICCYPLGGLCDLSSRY

MOLECULE	EXPERIMENTAL_SYSTEM	OBSERVED_PROPERTY	RESULT
CCOC(=O)N1CC[C@H](c2ccc(Cl)cc2)[C@@H]1C(=O)N1CCN(c2ccc(Cl)cc2[C@@H](N)C(C)C)CC1	UniProtKB P32245	Ki	0.018 µM
CC(=O)N1CC[C@H](c2ccc(Cl)cc2)[C@@H]1C(=O)N1CCN(c2ccc(C)cc2[C@@H](N)C(C)C)CC1 (stereo in doubt; form 2)	UniProtKB P32245	Ki	0.011 µM
Cc1ccc(N2CCN(C(=O)[C@H]3[C@@H](c4ccc(Cl)cc4)CCN3S(C)(=O)=O)CC2)c([C@@H](N)C(C)C)c1	UniProtKB P32245	Ki	0.04 µM

# next molecule below
Field Ki (entry `CCC(=O)N1CC[C@H](c2ccc(Cl)cc2)[C@H]1C(=O)N1CCN(c2ccc(C)cc2[C@@H](N)C(C)C)CC1` ) reads 0.062 µM
